Cited source: patent US20240360228A1

- tgt: T1, human chemokine (C-C motif) receptor 8 (CCR8) (human, UniProt P51685 1-355)
- T1 construct: also called hCCR8
- test-method-notes: flow cytometry blocking, human PBMC, CD3+ gate; % cells stained by competitor PE-AB8 after block
Answer not satisfied if % Positive cells is under 6%, and satisfied if it is 6% or more.

Check this binder for % Positive cells at or above 6%: anti-CCR8 monoclonal antibody AB11 (antibody, V domains shown, Hybridoma monoclonal; also called antibody 11; clone 11) VH: EVQLVESGGGLVQPKGSLKLSCAASGFAFNTYAMNWVRQAPGKGLEWIARLRSKSNFYATYYADSVKDRFTISRDDSQSMLYLQMNNLKTEDTAVYYCVRGRELGPSYAMDYWGQGTSVTVSS VL: DIVMTQAAPSVPVTPGESVSISCRSSKSLLHSNGNTYLYWFLQRPGQSPQLLIYRMSNLASGVPDRFSGSGSGTAFTLRISRVEAEDVGVYYCMQHLEYPYTFGGGTKLEIK
satisfied

One more binder: anti-CCR8 monoclonal antibody AB13 (antibody, V domains shown, Hybridoma monoclonal; also called antibody 13; clone 13) VH: EVQLVETGGGLVQPKGSLKLSCAASGFTFNAYAMNWVRQAPGKGLEWVARIRTKSNNYATYYADSVKDRFTISRDDSQTMLYLQMNNLKTEDTAMYYCVRDRATVTTGRAMDYWGQGTSVTVSS VL: DIVMTQAAPSLPVTPGESVSISCRSSKSLLHSNGNTYLYWFLQRAGQSPQLLIYRMSNLASGVPDRFSGSGSGTAFTLRISRVEAEDVGVYYCMQHLEYPFTFGSGTKLEIK
satisfied

One more binder: anti-CCR8 monoclonal antibody AB10 (antibody, V domains shown, Hybridoma monoclonal; also called antibody 10; clone 10) VH: EVQLVETGGGLVQPKGSLKLSCAVSGFTFKTNAMNWVRQAPGKGLEWVARIRSKSNKYATYYADSVKDRFTISRDDSQSMLYLQMNNLKTEDTAMYYCVRGSEMGYYYAMDYWGQGTSVTVSS VL: DIVMTQAAPSVPVTPGESVSISCRSSKSLLHSNGNTYLYWFLQRPGQSPQLLIYRMSNLASGVPDRFSGSGSGTAFTLRISRVEAEDVGVYYCMQHLEYPFTFGGGTKLEIK
not satisfied

One more binder: anti-CCR8 monoclonal antibody AB6 (antibody, V domains shown, also called antibody 6; clone 6) VH: QVQLKESGPGLVQPSQTLSLTCTVSGFSLTSYHVSWVRQPPGKGLEWMGVIWTGGSTTYNSLLKSRLSISRDISKSQVFLKMNSLQTEDTATYYCARGGTVVKGGFAYWGQGTLVTVSS VL: DIQMTQSPASLSASLEEIVTITCQASQDIGNRLSWYQQKPGKSPQLLIYGATSLADGVPSRFSGSRSGTQYSLKISRLQVEDIGIYYCLQAYSTPLTFGSGTKLEIK
not satisfied

One more binder: anti-CCR8 monoclonal antibody AB8 (antibody, V domains shown, Hybridoma monoclonal; also called antibody 8; clone 8) VH: AVQLVESGGGLVQPKESLKISCAASGFIFSNAAMYWVRQAPGKGLQWVARIRTKPKNYATYYIDSVKGRFTISRDDSKSMVYLQMDNLKTEDTAMYYCNTMGLTRAYYFDYWGQGVMVTVSS VL: DIQMTQSPSFLSASVGDRVTINCKASQNINRYLNWYQQKLGEAPKLLIYNANSLQTGIPSRFSGSGSGTDFTLTIRSLQPEDVATYFCLQHNSWPWTFGGGTKLELK
satisfied

One more binder: anti-CCR8 monoclonal antibody AB7 (antibody, V domains shown, Hybridoma monoclonal; also called antibody 7; clone 7) VH: AVQLVESGGGLVQPKESLKISCAASGFTFSYAAMYWVRQTPGKGLEWVARIRTKPNNYATYYADSVKGRFTISRDDSKSMVYLQMDNLKSEDTAMYYCNIMGITRGYYFDYWGQGVMVTVSS VL: DIQMTQSPSFLSASVGDRVTINCKASQNINRYLNWYQQQLGEAPKLLIYNANNLQTGIPSRFSGSRSGTDFTLTISSLQPEDVATYFCLQHNSWPWTFGGGTKLELK
not satisfied

One more binder: anti-CCR8 monoclonal antibody AB5 (antibody, V domains shown, Hybridoma monoclonal; also called antibody 5; clone 5) VH: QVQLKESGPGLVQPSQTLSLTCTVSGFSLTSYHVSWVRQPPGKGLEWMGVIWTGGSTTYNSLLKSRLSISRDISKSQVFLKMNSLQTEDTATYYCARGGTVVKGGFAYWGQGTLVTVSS VL: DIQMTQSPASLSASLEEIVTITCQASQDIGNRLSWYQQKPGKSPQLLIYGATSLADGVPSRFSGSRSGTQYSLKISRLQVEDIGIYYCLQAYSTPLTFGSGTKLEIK
satisfied
